# appliedConditions: in ethyl acetate, 293.15 K
reportedProperty: solubility (mole fraction)

Can you share its solubility (mole fraction)? I mean this compound: `Nc1ccc(S(=O)(=O)Nc2ccc(Cl)nn2)cc1`
0.0152

----------
# appliedConditions: in acetone, 283.15 K
reportedProperty: solubility (mole fraction)
Just the number, please, no unit after it.

I would be grateful if you could share the reported solubility (mole fraction) for `Nc1ccc(S(=O)(=O)Nc2ccc(Cl)nn2)cc1` .
0.0647

----------
# appliedConditions: in n-butanol, 298.15 K
reportedProperty: solubility (mole fraction)
Just the number.

Look up solubility (mole fraction) for this compound: `Nc1ccc(S(=O)(=O)Nc2ccc(Cl)nn2)cc1`
0.00474

----------
# appliedConditions: in 1,4-dioxane, 303.15 K
reportedProperty: solubility (mole fraction)
// response body must contain only the number

Fill in: solubility (mole fraction) of `Nc1ccc(S(=O)(=O)Nc2ccc(Cl)nn2)cc1` is ___
0.143

----------
# appliedConditions: in isopropanol, 303.15 K
reportedProperty: solubility (mole fraction)
Give a plain numeric answer without units written out.

Reported solubility (mole fraction) for `Nc1ccc(S(=O)(=O)Nc2ccc(Cl)nn2)cc1` : what is it?
0.00476

----------
# appliedConditions: in water, 298.15 K
reportedProperty: solubility (mole fraction)
No unit in the answer, only the number.

Please look up its solubility (mole fraction): `Nc1ccc(S(=O)(=O)Nc2ccc(Cl)nn2)cc1`
5.9e-05

----------
# appliedConditions: in methanol, 318.15 K
reportedProperty: solubility (mole fraction)
Field format: numeric only.

// solubility (mole fraction) lookup, key: `Nc1ccc(S(=O)(=O)Nc2ccc(Cl)nn2)cc1`
0.00966

----------
# appliedConditions: in acetonitrile, 303.15 K
reportedProperty: solubility (mole fraction)
# answer = number (no unit)

Fill blank: measured solubility (mole fraction) of the molecule `Nc1ccc(S(=O)(=O)Nc2ccc(Cl)nn2)cc1` is ____.
0.0224

----------
# appliedConditions: in 1,4-dioxane, 313.15 K
reportedProperty: solubility (mole fraction)
Lab note: record the figure alone, no unit after it.

Consider the compound `Nc1ccc(S(=O)(=O)Nc2ccc(Cl)nn2)cc1` and give its measured solubility (mole fraction).
0.179

----------
# appliedConditions: in methanol, 303.15 K
reportedProperty: solubility (mole fraction)
# print the numeric value only

What value of measured solubility (mole fraction) is listed for `Nc1ccc(S(=O)(=O)Nc2ccc(Cl)nn2)cc1` ?
0.00696

----------
# appliedConditions: in acetone, 308.15 K
reportedProperty: solubility (mole fraction)
Form: value (number only, do not type unit).

Record request: solubility (mole fraction) value, item `Nc1ccc(S(=O)(=O)Nc2ccc(Cl)nn2)cc1`
0.116

----------
# appliedConditions: in acetonitrile, 313.15 K
reportedProperty: solubility (mole fraction)
Write no unit; give the number alone.

Which solubility (mole fraction) value is on record for `Nc1ccc(S(=O)(=O)Nc2ccc(Cl)nn2)cc1` ?
0.0258

----------
# appliedConditions: in methanol, 298.15 K
reportedProperty: solubility (mole fraction)
Give only the figure.

Please look up its solubility (mole fraction): `Nc1ccc(S(=O)(=O)Nc2ccc(Cl)nn2)cc1`
0.00627

----------
# appliedConditions: in 1,4-dioxane, 293.15 K
reportedProperty: solubility (mole fraction)
Could you keep your reply to the number by itself?

What solubility (mole fraction) value was documented for this compound, `Nc1ccc(S(=O)(=O)Nc2ccc(Cl)nn2)cc1` ?
0.116
